biological target: IL-23 (human, p19/p40 heterodimer) (Homo sapiens, UniProt Q9NPF7;P29460 SEQ:20-189,SEQ:23-328); assay: filter; -tRNA; conditions: tags: R&D Systems, carrier free
Sequence (Q9NPF7 20-189, chain 1 of 2): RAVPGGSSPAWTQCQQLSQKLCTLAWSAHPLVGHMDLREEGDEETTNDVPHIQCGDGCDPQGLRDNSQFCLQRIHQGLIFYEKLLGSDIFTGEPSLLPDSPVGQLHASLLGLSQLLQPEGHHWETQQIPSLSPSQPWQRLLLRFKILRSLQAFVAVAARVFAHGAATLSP
Sequence (P29460 23-328, chain 2 of 2): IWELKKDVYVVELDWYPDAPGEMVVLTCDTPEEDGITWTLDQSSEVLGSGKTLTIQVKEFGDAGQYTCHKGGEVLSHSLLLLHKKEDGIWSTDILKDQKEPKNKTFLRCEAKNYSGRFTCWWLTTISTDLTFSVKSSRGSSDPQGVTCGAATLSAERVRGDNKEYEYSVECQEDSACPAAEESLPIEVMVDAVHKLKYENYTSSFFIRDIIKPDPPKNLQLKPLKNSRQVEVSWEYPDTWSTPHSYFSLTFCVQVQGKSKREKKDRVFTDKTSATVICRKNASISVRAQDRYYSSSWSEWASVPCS
pKd: −log10 of the molar value.
Outcome label depends on pKd relative to 7: at/above gives t, below gives f.

Prompt: Reported pKd reaches at least 7 for ACAGGCAAGUAAUUGGGGAGUGCGGGCGGGGUGU (mixed, deoxy A,G; 2'-OMe C,U; PS 13-14 [PS between 13-14; 2'-OMe C,U at 2,6,10,13,14,21,23,27,32,34; deoxy A,G at all other positions]) [ARC1158] ?
Completion: f

Prompt: Reported pKd reaches at least 7 for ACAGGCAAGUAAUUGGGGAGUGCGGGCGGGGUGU (mixed, deoxy A,G; 2'-OMe C,U; PS 8-9) [ARC1153] ?
Completion: f

Prompt: Reported pKd reaches at least 7 for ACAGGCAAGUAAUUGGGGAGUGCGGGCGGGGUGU (mixed, deoxy A,G; 2'-OMe C,U; PS 11-12 [PS between 11-12; 2'-OMe C,U at 2,6,10,13,14,21,23,27,32,34; deoxy A,G at all other positions]) [ARC1156] ?
Completion: f

Prompt: Reported pKd reaches at least 7 for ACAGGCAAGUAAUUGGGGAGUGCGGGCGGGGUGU (mixed, deoxy A,G; 2'-OMe C,U; PS 10-11 [PS between 10-11; 2'-OMe C,U at 2,6,10,13,14,21,23,27,32,34; deoxy A,G at all other positions]) [ARC1155] ?
Completion: f

Prompt: Reported pKd reaches at least 7 for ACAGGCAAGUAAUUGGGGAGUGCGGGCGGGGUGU (mixed, deoxy A,G; 2'-OMe C,U; PS 7-8) [ARC1152] ?
Completion: f

Prompt: Reported pKd reaches at least 7 for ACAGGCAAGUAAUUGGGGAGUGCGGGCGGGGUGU (mixed, deoxy A,G; 2'-OMe C,U; PS 26-27 [PS between 26-27; 2'-OMe C,U at 2,6,10,13,14,21,23,27,32,34; deoxy A,G at all other positions]) [ARC1165] ?
Completion: t

// data source = patent US20060193821
